assay: photoluminescence quantum yield (fraction); solvent given as SMILES; conditions: in Cc1ccccc1
# cutoff 0.2 applies to photoluminescence quantum yield; >= gives satisfied, < gives not satisfied

> print(dat)
                                test.smiles          label
1            Cn1nc(-c2ccccc2)c2n[nH]nc2c1=O      satisfied
2  COc1ccc(N(c2ccc(OC)cc2)c2cc3ccc4cc(B(c5c(C)cc(C)cc5C)c5c(C)cc(C)cc5C)cc5ccc(c2)c3c45)cc1      satisfied
3       CCCCCCc1ccc(/C=C/c2ccc(CCCCCC)s2)s1  not satisfied
4  F[B-]1(F)OC(c2ccc(C(F)(F)F)cc2)=Cc2cc(Cl)nc[n+]21  not satisfied
5  CCOC(=O)CN1C(=O)C2=C(c3ccc(N4CCCCC4)cc3)N(CC(=O)OCC)C(=O)C2=C1c1ccc(C#N)cc1  not satisfied
